Conditions: PAMPA-BBB
endpoint_label: BBB permeation prediction in words

1) O=c1c(NCCCCCCNc2c3c(nc4ccccc24)CCCC3)c(NCCCCCCNc2c3c(nc4ccccc24)CCCC3)c1=O ... uncertain BBB permeation
2) O=c1c(NCCCNc2c3c(nc4cc(Cl)ccc24)CCCC3)c(NCCCNc2c3c(nc4cc(Cl)ccc24)CCCC3)c1=O ... uncertain BBB permeation
3) COc1ccc2nc3c(c(NCCNc4c(NCCNc5c6c(nc7ccc(OC)cc57)CCCC6)c(=O)c4=O)c2c1)CCCC3 ... uncertain BBB permeation

====

Molecular target: human AChE (hAChE), recombinant acetylcholinesterase (Homo sapiens)
Sequence (P22303 32-614): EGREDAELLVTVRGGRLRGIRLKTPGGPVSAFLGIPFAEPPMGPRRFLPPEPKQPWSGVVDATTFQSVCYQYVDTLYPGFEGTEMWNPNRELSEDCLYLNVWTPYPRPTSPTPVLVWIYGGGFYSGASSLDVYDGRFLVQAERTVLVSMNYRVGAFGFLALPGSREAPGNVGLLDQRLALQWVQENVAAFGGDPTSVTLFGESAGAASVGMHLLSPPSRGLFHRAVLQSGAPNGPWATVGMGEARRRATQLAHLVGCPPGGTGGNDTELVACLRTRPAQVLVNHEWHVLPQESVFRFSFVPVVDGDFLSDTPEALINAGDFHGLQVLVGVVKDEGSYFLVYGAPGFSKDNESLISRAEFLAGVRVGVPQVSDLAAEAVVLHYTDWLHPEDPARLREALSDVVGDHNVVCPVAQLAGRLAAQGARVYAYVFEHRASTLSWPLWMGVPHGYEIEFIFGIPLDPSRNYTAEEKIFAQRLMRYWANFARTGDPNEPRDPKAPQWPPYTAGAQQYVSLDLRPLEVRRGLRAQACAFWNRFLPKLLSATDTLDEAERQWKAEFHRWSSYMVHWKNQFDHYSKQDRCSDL
Test: hAChE inhibition, modified Ellman's method
This section presents molecules with their documented IC50 values.
endpoint_label: IC50 (nM)

1. O=c1c(NCCCCCCNc2c3c(nc4ccccc24)CCCC3)c(NCCCCCCNc2c3c(nc4ccccc24)CCCC3)c1=O ... 13
2. O=c1c(NCCNc2c3c(nc4cc(Cl)ccc24)CCCC3)c(NCCNc2c3c(nc4cc(Cl)ccc24)CCCC3)c1=O ... 4.2
3. O=c1c(NCCCCCCCCNc2c3c(nc4cc(Cl)ccc24)CCCC3)c(NCCCCCCCCNc2c3c(nc4cc(Cl)ccc24)CCCC3)c1=O ... 10
4. O=c1c(NCCCCCCNc2c3c(nc4cc(Cl)ccc24)CCCC3)c(NCCCCCCNc2c3c(nc4cc(Cl)ccc24)CCCC3)c1=O ... 3.2
5. O=c1c(NCCCCCNc2c3c(nc4cc(Cl)ccc24)CCCC3)c(NCCCCCNc2c3c(nc4cc(Cl)ccc24)CCCC3)c1=O ... 8.2
6. COc1ccc2nc3c(c(NCCCCCCCCNc4c(NCCCCCCCCNc5c6c(nc7ccc(OC)cc57)CCCC6)c(=O)c4=O)c2c1)CCCC3 ... 490
7. O=c1c(NCCCNc2c3c(nc4ccccc24)CCCC3)c(NCCCNc2c3c(nc4ccccc24)CCCC3)c1=O ... 8.4

====

Test: in vitro
Conditions: human
compounds and their reported IC50 at 24 h
endpoint_label: IC50 at 24 h (µM)

1. CCN(C)C(=O)Oc1cccc([C@H](C)N(C)C)c1 [Rivastigmine, rivastigmine, reference compound] ... 3400
2. O=c1c(NCCCCCCCNc2c3c(nc4ccccc24)CCCC3)c(NCCCCCCCNc2c3c(nc4ccccc24)CCCC3)c1=O ... 23
3. COc1ccc2nc3c(c(N)c2c1)CCCC3 [Compound 7-MEOTA, 7-methoxytacrine, reference compound] ... 44
4. COc1ccc2nc3c(c(NCCCCCCCCNc4c(NCCCCCCCCNc5c6c(nc7ccc(OC)cc57)CCCC6)c(=O)c4=O)c2c1)CCCC3 ... 3.5

====

Assay: in vitro
Conditions: human
The label true (1) is reserved for IC50 at 24 h strictly under 100 µM; false (0) covers values equal to or above it.

1. O=c1c(NCCNc2c3c(nc4cc(Cl)ccc24)CCCC3)c(NCCNc2c3c(nc4cc(Cl)ccc24)CCCC3)c1=O ... false (0)
2. COc1ccc2nc3c(c(NCCCCCCNc4c(NCCCCCCNc5c6c(nc7ccc(OC)cc57)CCCC6)c(=O)c4=O)c2c1)CCCC3 ... true (1)
3. COc1ccc2nc3c(c(NCCCCNc4c(NCCCCNc5c6c(nc7ccc(OC)cc57)CCCC6)c(=O)c4=O)c2c1)CCCC3 ... false (0)
4. COc1ccc2nc3c(c(NCCNc4c(NCCNc5c6c(nc7ccc(OC)cc57)CCCC6)c(=O)c4=O)c2c1)CCCC3 ... false (0)
5. O=c1c(NCCCCCNc2c3c(nc4ccccc24)CCCC3)c(NCCCCCNc2c3c(nc4ccccc24)CCCC3)c1=O ... true (1)
6. O=c1c(NCCCCCCCCNc2c3c(nc4ccccc24)CCCC3)c(NCCCCCCCCNc2c3c(nc4ccccc24)CCCC3)c1=O ... true (1)
7. O=c1c(NCCCCNc2c3c(nc4ccccc24)CCCC3)c(NCCCCNc2c3c(nc4ccccc24)CCCC3)c1=O ... false (0)
